meta.source: patent US20130230533A1

- Target: T1, human CD48 (on primary human peripheral blood mononuclear cells) (human, UniProt P09326 27-220)
- T1 sequence: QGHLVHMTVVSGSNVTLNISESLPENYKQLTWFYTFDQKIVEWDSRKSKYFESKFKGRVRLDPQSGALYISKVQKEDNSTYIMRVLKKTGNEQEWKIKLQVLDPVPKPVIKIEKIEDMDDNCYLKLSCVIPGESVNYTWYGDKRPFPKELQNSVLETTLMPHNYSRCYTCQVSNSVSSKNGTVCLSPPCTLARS
- Method Notes: cell-based or functional assay
Measured Parameter: % Blockade of IFNγ release, MLR; D5 (%)
Give your result in % as a bare value.

Any idea what % Blockade of IFNγ release, MLR; D5 was measured for H4H1775P (antibody, human IgG4, V domains shown, Human IgG4 Fc (H4H)) VH: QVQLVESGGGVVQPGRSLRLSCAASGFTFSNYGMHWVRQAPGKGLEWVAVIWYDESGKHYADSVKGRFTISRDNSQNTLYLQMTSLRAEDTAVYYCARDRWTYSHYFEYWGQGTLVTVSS VL: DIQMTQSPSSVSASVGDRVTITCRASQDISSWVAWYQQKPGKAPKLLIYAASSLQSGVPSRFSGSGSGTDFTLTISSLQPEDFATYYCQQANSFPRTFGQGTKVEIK ?
70

Continue with H4H1707N (antibody, V domains shown, Human IgG4 Fc (H4H) form of 1707N) VH: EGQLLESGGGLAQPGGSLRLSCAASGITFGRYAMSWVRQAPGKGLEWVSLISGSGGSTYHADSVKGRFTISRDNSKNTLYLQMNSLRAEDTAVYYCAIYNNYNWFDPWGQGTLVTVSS VL: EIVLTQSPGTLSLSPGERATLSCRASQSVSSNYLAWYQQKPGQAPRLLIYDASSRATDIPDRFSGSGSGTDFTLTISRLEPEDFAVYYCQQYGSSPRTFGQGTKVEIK
62

Continue with H4H1772P (antibody, human IgG4, V domains shown, Human IgG4 Fc (H4H)) VH: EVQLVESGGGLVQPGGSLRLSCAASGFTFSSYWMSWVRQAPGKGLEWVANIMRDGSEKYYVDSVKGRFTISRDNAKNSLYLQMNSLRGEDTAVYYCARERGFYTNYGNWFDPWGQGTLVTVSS VL: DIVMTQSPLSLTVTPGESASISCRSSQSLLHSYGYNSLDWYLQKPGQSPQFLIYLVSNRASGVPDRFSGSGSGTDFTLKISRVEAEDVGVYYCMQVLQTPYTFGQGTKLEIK
62
